Biological target: T1, TNFR1 (Homo sapiens, UniProt P19438)
T1 chain: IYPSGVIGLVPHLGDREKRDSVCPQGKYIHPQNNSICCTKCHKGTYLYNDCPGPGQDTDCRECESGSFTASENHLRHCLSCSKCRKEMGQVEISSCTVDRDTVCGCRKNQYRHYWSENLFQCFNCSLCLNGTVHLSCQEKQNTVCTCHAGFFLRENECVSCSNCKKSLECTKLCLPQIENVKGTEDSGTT
Assay: yeast display SC50
ASSAY_ENDPOINT: apparent Kd (screen) (nM)
Give the quantity in nM, number only.

Reported apparent Kd (screen) of R14F (designed binder) MTLQELLREEALRFAEAEAFRYALELLAEKFPEQKEYLLDLAEEIESQIRSLSGVDVEDVRKFLDKEWAWVKELLAEHPAELAEVEAARAARLAELRAEVEAKVAA : 0.653

Reported apparent Kd (screen) of L24T (designed binder) MTLQELLREEALRRAEAEAFRYATELLAEKFPEQKEYLLDLAEEIESQIRSLSGVDVEDVRKFLDKEWAWVKELLAEHPAELAEVEAARAARLAELRAEVEAKVAA : 0.446

Reported apparent Kd (screen) of L96Q (designed binder) MTLQELLREEALRRAEAEAFRYALELLAEKFPEQKEYLLDLAEEIESQIRSLSGVDVEDVRKFLDKEWAWVKELLAEHPAELAEVEAARAARLAEQRAEVEAKVAA : 0.539

Others:
Reported apparent Kd (screen) of L24P (designed binder) MTLQELLREEALRRAEAEAFRYAPELLAEKFPEQKEYLLDLAEEIESQIRSLSGVDVEDVRKFLDKEWAWVKELLAEHPAELAEVEAARAARLAELRAEVEAKVAA : 26.9
